Insecticidal effect 30d (relative effectiveness ratio) values by entry
system: mosquitos; assay: Insecticidal effect (knock-down effect) by the open cylinder method; type: in vivo; conditions: cartridge of Example 1; thirtieth day; relative to Pynamin Forte mat
I'd appreciate a reply containing only the number, no unit.

{"COMPOUND": "CC=CC1C(C(=O)OCc2c(F)c(F)cc(F)c2F)C1(C)C (stereo not drawn) [Compound B]", "RECORDED_RESULT": 2.7}
{"COMPOUND": "CC=CC1C(C(=O)OCc2c(F)c(F)c(COC)c(F)c2F)C1(C)C (stereo not drawn) [Compound G]", "RECORDED_RESULT": 3.4}

Please state recorded Insecticidal effect 30d (relative effectiveness ratio) (tested on mosquitos) of CC=CC1C(C(=O)OCc2c(F)c(F)c(C)c(F)c2F)C1(C)C (stereo not drawn) [Compound D]
3.1

====

System: mosquitos
Assay: Insecticidal effect (knock-down effect) by the open cylinder method
Assay type: in vivo
Conditions: cartridge of Example 1; thirtieth day; relative to Pynamin Forte mat
From the text: An insecticide was impregnated in various kinds of raw materials for preparing insecticide impregnated materials. The resulting insecticide-impregnated materials were housed in their respective insecticide cartridges of Example 1 and Comparative Example 1, followed by mounting each of them on an insecticide transpiration apparatus of the present invention. […]
Insecticidal effect 30d (relative effectiveness ratio) values by entry

{"MOLECULE": "CC1(C)C(C=C(Cl)C(F)(F)F)C1C(=O)OCc1c(F)c(F)c(F)c(F)c1F (centres unmarked) [Compound H]", "RECORDED_RESULT": 2.3}
{"MOLECULE": "C#CCc1c(F)c(F)c(COC(=O)C2C(C=CC)C2(C)C)c(F)c1F (centres unmarked) [Compound I]", "RECORDED_RESULT": 2.9}
{"MOLECULE": "C#CCc1c(F)c(F)c(COC(=O)C2C(C)(C)C2(C)C)c(F)c1F [Compound K]", "RECORDED_RESULT": 2.7}
{"MOLECULE": "CC(C)=CC1C(C(=O)OCc2c(F)c(F)c(C)c(F)c2F)C1(C)C (centres unmarked) [Compound C]", "RECORDED_RESULT": 2.2}
{"MOLECULE": "COCc1c(F)c(F)c(COC(=O)C2C(C=C(C)C)C2(C)C)c(F)c1F (centres unmarked) [Compound F]", "RECORDED_RESULT": 2.5}

Quick check: Insecticidal effect 30d (relative effectiveness ratio) of Cc1c(F)c(F)c(COC(=O)C2C(C=C(F)F)C2(C)C)c(F)c1F (centres unmarked) [Compound E] ?
2.8

Quick check: Insecticidal effect 30d (relative effectiveness ratio) of CC(C)=CC1C(C(=O)OCc2c(F)c(F)cc(F)c2F)C1(C)C (centres unmarked) [Compound A, 2,3,5,6-tetrafluorobenzyl-chrysanthemate] ?
3.8

Quick check: Insecticidal effect 30d (relative effectiveness ratio) of COCc1c(F)c(F)c(COC(=O)C2C(C)(C)C2(C)C)c(F)c1F [Compound J] ?
2.8

====

test system: mosquitos; test: Insecticidal effect (knock-down effect) by the open cylinder method; format: in vivo; details: cartridge of Example 1; first day; relative to initial effect of dl, d-cis, trans-allethrin (Pynamin Forte) mat at 160° C.
MEASURED_PARAMETER: Insecticidal effect 1d (relative effectiveness ratio)
I'd appreciate a reply containing only the number, no unit.

Consider the following illustrative entries.
{"COMPOUND": "CC=CC1C(C(=O)OCc2c(F)c(F)c(COC)c(F)c2F)C1(C)C (centres unmarked)", "SYSTEM_UNDER_TEST": "mosquitos", "RECORDED_RESULT": 3.4}
{"COMPOUND": "C#CCc1c(F)c(F)c(COC(=O)C2C(C=CC)C2(C)C)c(F)c1F (centres unmarked)", "SYSTEM_UNDER_TEST": "mosquitos", "RECORDED_RESULT": 3.0}
{"COMPOUND": "CC=CC1C(C(=O)OCc2c(F)c(F)cc(F)c2F)C1(C)C (centres unmarked)", "SYSTEM_UNDER_TEST": "mosquitos", "RECORDED_RESULT": 2.8}
{"COMPOUND": "Cc1c(F)c(F)c(COC(=O)C2C(C=C(F)F)C2(C)C)c(F)c1F (centres unmarked)", "SYSTEM_UNDER_TEST": "mosquitos", "RECORDED_RESULT": 2.9}
{"COMPOUND": "CC(C)=CC1C(C(=O)OCc2c(F)c(F)cc(F)c2F)C1(C)C (centres unmarked) [Compound A, 2,3,5,6-tetrafluorobenzyl-chrysanthemate]", "SYSTEM_UNDER_TEST": "mosquitos", "RECORDED_RESULT": 3.9}
{"COMPOUND": "CC1(C)C(C=C(Cl)C(F)(F)F)C1C(=O)OCc1c(F)c(F)c(F)c(F)c1F (centres unmarked)", "SYSTEM_UNDER_TEST": "mosquitos", "RECORDED_RESULT": 2.4}
{"COMPOUND": "COCc1c(F)c(F)c(COC(=O)C2C(C=C(C)C)C2(C)C)c(F)c1F (centres unmarked)", "SYSTEM_UNDER_TEST": "mosquitos", "RECORDED_RESULT": 2.6}
{"COMPOUND": "C#CCc1c(F)c(F)c(COC(=O)C2C(C)(C)C2(C)C)c(F)c1F", "SYSTEM_UNDER_TEST": "mosquitos", "RECORDED_RESULT": 2.8}
{"COMPOUND": "CC(C)=CC1C(C(=O)OCc2c(F)c(F)c(C)c(F)c2F)C1(C)C (centres unmarked)", "SYSTEM_UNDER_TEST": "mosquitos", "RECORDED_RESULT": 2.3}
{"COMPOUND": "CC=CC1C(C(=O)OCc2c(F)c(F)c(C)c(F)c2F)C1(C)C (centres unmarked)", "SYSTEM_UNDER_TEST": "mosquitos", "RECORDED_RESULT": 3.2}

Query compound follows.
Quick check: Insecticidal effect 1d (relative effectiveness ratio) of COCc1c(F)c(F)c(COC(=O)C2C(C)(C)C2(C)C)c(F)c1F ?
2.9
